Each entry below carries its reported pKd.
# STUDY TARGET: T1, human MerTK (human, UniProt Q12866 26-499)
# T1 construct: also called HuMER
# T1 sequence: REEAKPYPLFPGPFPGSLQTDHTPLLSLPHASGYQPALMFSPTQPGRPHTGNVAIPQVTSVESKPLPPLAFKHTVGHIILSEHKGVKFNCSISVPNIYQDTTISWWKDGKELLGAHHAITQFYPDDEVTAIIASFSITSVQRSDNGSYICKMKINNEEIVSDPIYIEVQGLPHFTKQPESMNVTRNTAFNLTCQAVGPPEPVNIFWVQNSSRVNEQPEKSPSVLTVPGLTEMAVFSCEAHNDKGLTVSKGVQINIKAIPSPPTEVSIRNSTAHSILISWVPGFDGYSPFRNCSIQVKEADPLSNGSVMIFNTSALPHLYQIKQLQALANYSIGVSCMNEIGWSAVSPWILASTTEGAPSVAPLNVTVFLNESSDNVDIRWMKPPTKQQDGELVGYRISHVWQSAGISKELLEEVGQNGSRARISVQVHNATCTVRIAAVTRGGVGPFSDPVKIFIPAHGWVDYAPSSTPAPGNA
# ASSAY DETAILS: SPR BIAcore T200, Ab captured, 25C
pKd: −log10 of the molar value.
MEASURE NAME: pKd

BINDER: Rbt9E3.FN (antibody, V domains shown, Recombinant rabbit monoclonal antibody, Expi293, protein A purified) VH: QSVEESGGRLVTPGTPLTLTCTVSGFSLSSNAMSWVRQAPGKGLEWIGIISSSGSTYSASWAKGRFTISKTSTTMDLKITSPTTEDTATYFCARVGFFVGYGAYDYGIIHRLDLWGQGTLVTVSS VL: AAVLTQTPSPVSAAVGGTVSISCQSSKSIYNNNWLSWYQQKPGQPPKLLIYDASDLASGVPSRFEGSGSGTEFTLTISDLECDDAATYYCAGGYSGDSDYAFGGGTEVVVK
OBSERVED RESULT: 8.59
//
BINDER: Rbt22C4 (antibody, V domains shown, Recombinant rabbit monoclonal antibody, Expi293, protein A purified) VH: QSVEESGGRLVTPGTPLTLTCTVSGFSLSTYSMSWVRQAPGKGLEWLGIVSVAIDPVYATWARGRFTISRTSTTVNLKITSPTTEDTATYFCVRVAFSTNGIPHRLDLWGQGTLVTVSS VL: AQVLTQTASSVSAAVGGTVTISCQSSPSVYNHNWLSWYQQKPGQPPKLLIYEASKLASGVPSRFSGSGSGTQFTLTISDVQCDEAATYYCAGGFSSGSDSFAFGGGTEVVVT
OBSERVED RESULT: 7.03
